Recorded Tmax values for a group of compounds are listed next.
test: Intranasal triptans with alkylsaccharide in rats, plasma levels by HPLC; format: in vivo; settings: Rizatriptan […] intranasal; alkylsaccharide 0.1%

Check out these entries, answers already filled in.
Compound	Tmax
CCCCCCCCCCCCCO[C@@H]1O[C@H](CO)[C@@H](O[C@H]2O[C@H](CO)[C@@H](O)[C@H](O)[C@H]2O)[C@H](O)[C@H]1O [tridecyl maltoside, tridecyl-β-D-maltoside]	~5 to 15 min
CCCCCCCCCCCCO[C@@H]1O[C@H](CO)[C@@H](O[C@H]2O[C@H](CO)[C@@H](O)[C@H](O)[C@H]2O)[C@H](O)[C@H]1O [dodecyl maltoside]	~5 to 15 min
CCCCCCCCCCO[C@@H]1O[C@H](CO)[C@@H](O[C@H]2O[C@H](CO)[C@@H](O)[C@H](O)[C@H]2O)[C@H](O)[C@H]1O [decyl maltoside, decyl-β-D-maltoside]	~60 to 120 min
CCCCCCCCCCCCCCO[C@@H]1O[C@H](CO)[C@@H](O[C@H]2O[C@H](CO)[C@@H](O)[C@H](O)[C@H]2O)[C@H](O)[C@H]1O [tetradecyl maltoside]	~5 to 15 min

Now for a further compound.
Data request: Item CCCCCCCCO[C@@H]1O[C@H](CO)[C@@H](O[C@H]2O[C@H](CO)[C@@H](O)[C@H](O)[C@H]2O)[C@H](O)[C@H]1O [octyl maltoside, Octyl-β-D-maltoside] has what recorded Tmax?
Data returned: ~60 to 120 min

###

assay: Intranasal triptans with alkylsaccharide in rats, plasma levels by HPLC; assay type: in vivo; details: Naratriptan 0.22 mg/kg intranasal; alkylsaccharide 2%
Recorded metric: Ratio Cmax(alkylsacch)/Cmax(No alkylsacch)

Check out these entries, answers already filled in.
Compound	Test value
CCCCCCCCCCCCCO[C@@H]1O[C@H](CO)[C@@H](O[C@H]2O[C@H](CO)[C@@H](O)[C@H](O)[C@H]2O)[C@H](O)[C@H]1O [tridecyl maltoside, tridecyl-β-D-maltoside]	≧1.5
CCCCCCCCCCCCCCO[C@@H]1O[C@H](CO)[C@@H](O[C@H]2O[C@H](CO)[C@@H](O)[C@H](O)[C@H]2O)[C@H](O)[C@H]1O [tetradecyl maltoside]	≧1.5
CCCCCCCCO[C@@H]1O[C@H](CO)[C@@H](O[C@H]2O[C@H](CO)[C@@H](O)[C@H](O)[C@H]2O)[C@H](O)[C@H]1O [octyl maltoside, Octyl-β-D-maltoside]	≦1.5
CCCCCCCCCCO[C@@H]1O[C@H](CO)[C@@H](O[C@H]2O[C@H](CO)[C@@H](O)[C@H](O)[C@H]2O)[C@H](O)[C@H]1O [decyl maltoside, decyl-β-D-maltoside]	≧1.5

Now for a further compound.
Data request: Item CCCCCCCCCCCCO[C@@H]1O[C@H](CO)[C@@H](O[C@H]2O[C@H](CO)[C@@H](O)[C@H](O)[C@H]2O)[C@H](O)[C@H]1O [dodecyl maltoside] has what recorded Ratio Cmax(alkylsacch)/Cmax(No alkylsacch)?
Data returned: ≧1.5

###

Recorded Tmax values for a group of compounds are listed next.
assay: Intranasal triptans with alkylsaccharide in rats, plasma levels by HPLC; assay type: in vivo; details: Rizatriptan […] intranasal; alkylsaccharide 2%;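 also: rats in groups of eight given 20 µL into one nostril, dose expressed as triptan free base, Cmax and Tmax read from plasma concentration–time curves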

Check out these entries, answers already filled in.
Compound	Tmax
CCCCCCCCCCCCCO[C@@H]1O[C@H](CO)[C@@H](O[C@H]2O[C@H](CO)[C@@H](O)[C@H](O)[C@H]2O)[C@H](O)[C@H]1O [tridecyl maltoside, tridecyl-β-D-maltoside]	~5 to 15 min
CCCCCCCCCCO[C@@H]1O[C@H](CO)[C@@H](O[C@H]2O[C@H](CO)[C@@H](O)[C@H](O)[C@H]2O)[C@H](O)[C@H]1O [decyl maltoside, decyl-β-D-maltoside]	~5 to 15 min
CCCCCCCCCCCCO[C@@H]1O[C@H](CO)[C@@H](O[C@H]2O[C@H](CO)[C@@H](O)[C@H](O)[C@H]2O)[C@H](O)[C@H]1O [dodecyl maltoside]	~5 to 15 min
CCCCCCCCO[C@@H]1O[C@H](CO)[C@@H](O[C@H]2O[C@H](CO)[C@@H](O)[C@H](O)[C@H]2O)[C@H](O)[C@H]1O [octyl maltoside, Octyl-β-D-maltoside]	~60 to 120 min

Now for a further compound.
Data request: Item CCCCCCCCCCCCCCO[C@@H]1O[C@H](CO)[C@@H](O[C@H]2O[C@H](CO)[C@@H](O)[C@H](O)[C@H]2O)[C@H](O)[C@H]1O [tetradecyl maltoside] has what recorded Tmax?
Data returned: ~5 to 15 min
